Target: T1, cynomolgus BLyS (full length, arginine to histidine at position 132) on CHO-K1 cells (cynomolgus, UniProt Q9Y275 1-285 (human entry))
T1 construct: also called cyno BLyS; CHO-K1 cynoBLyS
T1 chain: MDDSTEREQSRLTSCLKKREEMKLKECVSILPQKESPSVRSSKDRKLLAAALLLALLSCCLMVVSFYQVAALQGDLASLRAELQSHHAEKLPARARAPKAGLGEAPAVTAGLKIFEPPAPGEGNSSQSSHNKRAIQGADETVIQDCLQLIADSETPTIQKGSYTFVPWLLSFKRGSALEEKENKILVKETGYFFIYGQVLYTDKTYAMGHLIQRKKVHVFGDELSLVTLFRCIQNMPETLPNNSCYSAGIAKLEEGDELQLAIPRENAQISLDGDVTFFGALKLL
Assay: flow cytometry, CHO-K1 cynoBLyS cells, antibody 2.67 nM
Provide the recorded MFI for the entries that follow.
One number for each entry, in MFI.

For 97A3C2H4 (antibody, V domains shown, Mouse hybridoma monoclonal antibody purified on Protein G) VH: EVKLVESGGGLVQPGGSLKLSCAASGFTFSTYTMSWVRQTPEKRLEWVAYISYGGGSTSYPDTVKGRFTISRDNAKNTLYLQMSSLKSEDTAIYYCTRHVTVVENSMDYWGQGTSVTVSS VL: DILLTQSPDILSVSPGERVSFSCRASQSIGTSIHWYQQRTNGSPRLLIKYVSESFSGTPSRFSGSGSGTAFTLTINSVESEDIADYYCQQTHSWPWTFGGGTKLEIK the binder record lists MFI as 956

Continuing:
For 67A2E1D10 (antibody, V domains shown, Mouse hybridoma monoclonal antibody purified on Protein G) VH: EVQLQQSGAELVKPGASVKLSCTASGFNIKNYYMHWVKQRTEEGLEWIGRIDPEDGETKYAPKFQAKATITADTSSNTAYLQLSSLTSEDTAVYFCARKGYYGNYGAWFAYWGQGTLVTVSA VL: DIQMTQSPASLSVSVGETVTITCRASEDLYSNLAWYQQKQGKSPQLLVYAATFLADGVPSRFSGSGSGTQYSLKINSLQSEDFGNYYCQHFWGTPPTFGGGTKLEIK the binder record lists MFI as 518

The reported measurements were obtained from patent US20210347873A1.
